For each entry below, report its fold change of Cadaverine concentration value.
- System: Klebsiella aerogenes DSM 30053
- EXPERIMENT: fold change of Cadaverine concentration vs plate DMSO controls (fold change (ratio)); higher = more amine produced, active = hit call of the paper (significant change in both replicates, either direction)
- SETUP_CONDITIONS: 20 µM; incubation time: 27 h, anaerobic, 37 °C
Counter-ions that a name gives are not always drawn.
Number only, please.

With Klebsiella aerogenes DSM 30053 as the test system, O=C(O)c1nc(Cl)ccc1Cl showed fold change of Cadaverine concentration of 0.983

With Klebsiella aerogenes DSM 30053 as the test system, CC(C)OC(=O)Nc1cccc(Cl)c1 showed fold change of Cadaverine concentration of 1.01

With Klebsiella aerogenes DSM 30053 as the test system, CC1(C(=O)Nc2ccc(O)c(Cl)c2Cl)CCCCC1 showed fold change of Cadaverine concentration of 1

With Klebsiella aerogenes DSM 30053 as the test system, O=C1C2CC=CCC2C(=O)N1SC(Cl)(Cl)Cl (stereo not drawn) showed fold change of Cadaverine concentration of 0.999

With Klebsiella aerogenes DSM 30053 as the test system, C=C1CC[C@@]2(O)[C@H]3Cc4ccc(O)c5c4[C@@]2(CCN3CC2CC2)[C@H]1O5 [Nalmefene hydrochloride] showed fold change of Cadaverine concentration of 1.01

With Klebsiella aerogenes DSM 30053 as the test system, CN(C)[C@@H]1C(=O)C(C(N)=O)=C(O)[C@@]2(O)C(=O)C3=C(O)c4c(O)ccc(Cl)c4[C@@](C)(O)[C@H]3C[C@@H]12 [Chlortetracycline hydrochloride] showed fold change of Cadaverine concentration of 0.483

With Klebsiella aerogenes DSM 30053 as the test system, CCC1(CC)C(=O)C=CNC1=O showed fold change of Cadaverine concentration of 1.02

With Klebsiella aerogenes DSM 30053 as the test system, O=[N+]([O-])/N=C1\NCCN1Cc1ccc(Cl)nc1 showed fold change of Cadaverine concentration of 0.998

With Klebsiella aerogenes DSM 30053 as the test system, CCN(CC)C(C)C(=O)c1ccccc1 (stereo not drawn) [Amfepramone hydrochloride] showed fold change of Cadaverine concentration of 1.01

With Klebsiella aerogenes DSM 30053 as the test system, CC(C)OC(=O)C(C(=O)OC(C)C)=C1SCCS1 showed fold change of Cadaverine concentration of 1

With Klebsiella aerogenes DSM 30053 as the test system, Oc1ccc(Cc2ccc(O)cc2)cc1 showed fold change of Cadaverine concentration of 1.09

With Klebsiella aerogenes DSM 30053 as the test system, O=C(NCNC(=O)NC1C(=O)NC(=O)N1CO)NC1C(=O)NC(=O)N1CO (stereo not drawn) showed fold change of Cadaverine concentration of 0.994

With Klebsiella aerogenes DSM 30053 as the test system, CCN(C)C(=O)Oc1cccc([C@H](C)N(C)C)c1 showed fold change of Cadaverine concentration of 1.03

With Klebsiella aerogenes DSM 30053 as the test system, CCCN(CCOc1c(Cl)cc(Cl)cc1Cl)C(=O)n1ccnc1 showed fold change of Cadaverine concentration of 0.998

With Klebsiella aerogenes DSM 30053 as the test system, O=C(O)C(F)(F)C(F)(F)C(F)(F)C(F)(F)C(F)(F)C(F)(F)C(F)(F)C(F)(F)C(F)(F)F showed fold change of Cadaverine concentration of 1

With Klebsiella aerogenes DSM 30053 as the test system, CN1C(=O)CCS(=O)(=O)C1c1ccc(Cl)cc1 (stereo not drawn) showed fold change of Cadaverine concentration of 1.01

With Klebsiella aerogenes DSM 30053 as the test system, C[C@]12CC[C@@H]3c4ccc(OC(=O)N(CCCl)CCCl)cc4CC[C@H]3[C@@H]1CC[C@@H]2O showed fold change of Cadaverine concentration of 1.04

With Klebsiella aerogenes DSM 30053 as the test system, O=C1C2(Cl)C3(Cl)C4(Cl)C(Cl)(Cl)C5(Cl)C3(Cl)C1(Cl)C5(Cl)C24Cl (stereo not drawn) showed fold change of Cadaverine concentration of 1.05

With Klebsiella aerogenes DSM 30053 as the test system, CC[C@@H](CO)NC(=O)[C@@H]1C=C2c3cccc4[nH]cc(c34)C[C@H]2N(C)C1 [Methylergometrine maleate] showed fold change of Cadaverine concentration of 1

With Klebsiella aerogenes DSM 30053 as the test system, O=C(O)C(F)(F)C(F)(F)C(F)(F)C(F)(F)C(F)(F)C(F)(F)C(F)(F)F showed fold change of Cadaverine concentration of 0.992

With Klebsiella aerogenes DSM 30053 as the test system, N#Cc1nn(-c2c(Cl)cc(C(F)(F)F)cc2Cl)c(N)c1[S+]([O-])C(F)(F)F (stereo not drawn) showed fold change of Cadaverine concentration of 1

With Klebsiella aerogenes DSM 30053 as the test system, O=C1C=C(N(Cc2ccc(Cl)nc2)CC(F)F)CO1 showed fold change of Cadaverine concentration of 1.01

With Klebsiella aerogenes DSM 30053 as the test system, CC1(C)C(C=C(Cl)Cl)C1C(=O)OC(C#N)c1ccc(F)c(Oc2ccccc2)c1 (mixture of isomers) showed fold change of Cadaverine concentration of 1.02

With Klebsiella aerogenes DSM 30053 as the test system, CN(C)C(=O)Oc1cc(OC(=O)N(C)C)cc(C(O)CNC(C)(C)C)c1 (stereo not drawn) [Bambuterol hydrochloride] showed fold change of Cadaverine concentration of 0.995

With Klebsiella aerogenes DSM 30053 as the test system, O=C(O)CNCP(=O)(O)O showed fold change of Cadaverine concentration of 1.03

With Klebsiella aerogenes DSM 30053 as the test system, C[N+]1(C)CCOC(O)(c2ccc(-c3ccc(C4(O)C[N+](C)(C)CCO4)cc3)cc2)C1 (stereo not drawn) [Hemicholinium bromide] showed fold change of Cadaverine concentration of 1.02

With Klebsiella aerogenes DSM 30053 as the test system, Oc1ccc(Cl)cc1Cc1cc(Cl)ccc1O showed fold change of Cadaverine concentration of 0.986

With Klebsiella aerogenes DSM 30053 as the test system, CCN(CC)c1nc(C)cc(OP(=S)(OC)OC)n1 showed fold change of Cadaverine concentration of 1

With Klebsiella aerogenes DSM 30053 as the test system, CC(C)CC(N(C)C)C1(c2ccc(Cl)cc2)CCC1 (stereo not drawn) [Sibutramine hydrochloride] showed fold change of Cadaverine concentration of 0.989

With Klebsiella aerogenes DSM 30053 as the test system, COC(=O)Nc1nc2ccccc2[nH]1 showed fold change of Cadaverine concentration of 0.989

With Klebsiella aerogenes DSM 30053 as the test system, CCCC(C)C1(CC)C(=O)NC(=O)NC1=O (stereo not drawn) showed fold change of Cadaverine concentration of 0.988

With Klebsiella aerogenes DSM 30053 as the test system, CN(C)[C@@H]1C(=O)C(C(N)=O)=C(O)[C@@]2(O)C(=O)C3=C(O)c4c(O)cccc4[C@@](C)(O)[C@H]3[C@H](O)[C@@H]12 [Oxytetracycline dihydrate] showed fold change of Cadaverine concentration of 0.413

With Klebsiella aerogenes DSM 30053 as the test system, CC1(C)C(C=C(Cl)Cl)C1C(=O)OCc1cccc(Oc2ccccc2)c1 (mixture of isomers) showed fold change of Cadaverine concentration of 1

With Klebsiella aerogenes DSM 30053 as the test system, C[CH2][Hg][S]c1ccccc1C(=O)[O-].[Na+] showed fold change of Cadaverine concentration of 1

With Klebsiella aerogenes DSM 30053 as the test system, NC(=O)CN1CC(O)CC1=O (stereo not drawn) showed fold change of Cadaverine concentration of 1.07

With Klebsiella aerogenes DSM 30053 as the test system, CCCN(CCC)C(=O)SCc1ccccc1 showed fold change of Cadaverine concentration of 0.993

With Klebsiella aerogenes DSM 30053 as the test system, CCc1cc(C)cc(CC)c1-c1c(OC(=O)C(C)(C)C)n2n(c1=O)CCOCC2 showed fold change of Cadaverine concentration of 0.994

With Klebsiella aerogenes DSM 30053 as the test system, C[C@]12C=CC(=O)C=C1CC[C@@H]1[C@@H]2CC[C@@]2(C)[C@H]1CC[C@]2(C)O showed fold change of Cadaverine concentration of 0.991

* * *

For each entry below, report its fold change of Cadaverine concentration value.
- System: Escherichia coli IAI1
- EXPERIMENT: fold change of Cadaverine concentration vs plate DMSO controls (fold change (ratio)); higher = more amine produced, active = hit call of the paper (significant change in both replicates, either direction)
- SETUP_CONDITIONS: 20 µM; incubation time: 27 h, anaerobic, 37 °C
Structures can show the parent of a compound that is named as a salt.
Number only, please.

Briefly, fold change of Cadaverine concentration measured for O=C1C=CC(=O)C=C1 : 0.943

Briefly, fold change of Cadaverine concentration measured for CCN(C(C)=O)c1cccc(-c2ccnc3c(C#N)cnn23)c1 : 1.02

Briefly, fold change of Cadaverine concentration measured for N#Cc1nn(-c2c(Cl)cc(C(F)(F)F)cc2Cl)c(N)c1[S+]([O-])C(F)(F)F (stereo unspecified) [Fipronil] : 1.01

Briefly, fold change of Cadaverine concentration measured for CS(=O)(=O)c1cc(C(F)(F)F)ccc1C(=O)c1cnoc1C1CC1 : 0.905

Briefly, fold change of Cadaverine concentration measured for COc1cc(OC)nc(NC(=O)NS(=O)(=O)c2ncccc2C(=O)N(C)C)n1 : 1.01

Briefly, fold change of Cadaverine concentration measured for C#CCN1C(=O)COc2cc(F)c(N3C(=O)C4=C(CCCC4)C3=O)cc21 : 1.04

Briefly, fold change of Cadaverine concentration measured for c1ccc2c(c1)-c1cccc3cccc-2c13 : 1.01

Briefly, fold change of Cadaverine concentration measured for CN1CCC2(C)c3cc(O)ccc3N(C)C12 (single isomer, unassigned; (-)) [(-) Eseroline fumarate salt] : 0.994

Briefly, fold change of Cadaverine concentration measured for Nc1c([N+](=O)[O-])ccc(Oc2ccccc2)c1Cl : 1.04

Briefly, fold change of Cadaverine concentration measured for CC(C)(N)Cc1ccccc1 [Phentermine hydrochloride] : 1.05

Briefly, fold change of Cadaverine concentration measured for O=C(O)COc1ccc(Cl)cc1Cl : 0.996

Briefly, fold change of Cadaverine concentration measured for COP(=O)(NC(C)=O)SC (stereo unspecified) : 1.02

Briefly, fold change of Cadaverine concentration measured for CCN[C@@H](C)Cc1cccc(C(F)(F)F)c1 [Dexfenfluramine hydrochloride] : 0.869

Briefly, fold change of Cadaverine concentration measured for CC(C)N1C(=O)N(c2ccccc2)CS/C1=N\C(C)(C)C : 1.06

Briefly, fold change of Cadaverine concentration measured for Cc1ccc(/N=C/N(C)/C=N/c2ccc(C)cc2C)c(C)c1 : 1.01

Briefly, fold change of Cadaverine concentration measured for Cc1cc(C(F)(C(F)(F)F)C(F)(F)F)ccc1NC(=O)c1cccc(I)c1C(=O)NC(C)(C)CS(C)(=O)=O : 1

Briefly, fold change of Cadaverine concentration measured for CO[C@]12C[C@@H](COC(=O)c3cncc(Br)c3)CN(C)[C@@H]1Cc1cn(C)c3cccc2c13 : 0.908

Briefly, fold change of Cadaverine concentration measured for CC(COc1ccc(Oc2ccccc2)cc1)Oc1ccccn1 (stereo unspecified) : 1.02

Briefly, fold change of Cadaverine concentration measured for N#CC(CCc1ccc(Cl)cc1)(Cn1cncn1)c1ccccc1 (stereo unspecified) : 0.972

Briefly, fold change of Cadaverine concentration measured for O=[N+]([O-])/N=C1\NCCN1Cc1ccc(Cl)nc1 : 0.98

Briefly, fold change of Cadaverine concentration measured for CCNC(=O)NC(=O)/C(C#N)=N/OC : 1.06
